# SUBJECT OF TEST: T1, human IL22R on BW-hIL22R cells (human, UniProt Q8N6P7 16-574)
# T1 sequence (looked up): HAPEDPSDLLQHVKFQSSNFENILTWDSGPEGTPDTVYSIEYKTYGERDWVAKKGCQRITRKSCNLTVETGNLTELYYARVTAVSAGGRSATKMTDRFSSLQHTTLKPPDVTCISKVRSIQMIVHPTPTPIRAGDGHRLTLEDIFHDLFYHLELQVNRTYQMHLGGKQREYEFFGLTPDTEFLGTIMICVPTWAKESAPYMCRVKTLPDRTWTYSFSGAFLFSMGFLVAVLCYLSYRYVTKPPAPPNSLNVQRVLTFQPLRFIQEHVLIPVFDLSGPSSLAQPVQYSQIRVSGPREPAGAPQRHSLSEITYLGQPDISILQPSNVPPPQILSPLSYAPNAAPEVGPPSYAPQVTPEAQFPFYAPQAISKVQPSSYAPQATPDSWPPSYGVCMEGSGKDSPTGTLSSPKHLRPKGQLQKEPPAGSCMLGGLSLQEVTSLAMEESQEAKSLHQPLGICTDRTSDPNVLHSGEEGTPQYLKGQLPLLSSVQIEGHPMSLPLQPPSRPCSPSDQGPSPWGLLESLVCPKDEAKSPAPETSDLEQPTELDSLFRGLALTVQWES
# EXPERIMENTAL PROTOCOL: cell-based or functional assay
TEST READOUT: IC50 pM (potency on human IL22R expressing cells) (pM)
Just the number in pM, nothing appended.

>>> observed_result("197B7 (antibody, V domains shown, Vkappa-shuffled clone of 170B2 (keeps the 170B2 VH-CH1); also called VK_197B7) VH: EVQLVESGGGLVQPGGSLRLSCAASGFTFSSSWMYWVRQAPGKGLEFVSVINTRSGITHYVESVKGRFTISTDNAKNTLFLQMNSLKSEDTAVYYCATRIQGLIDYWGQGTQVTVSS VL: DIVMTQSPSSLSASLGDRVTITCQASQSIRSFIDWYQQKPGQAPKLLIYGTSRLETGVPSRFSGTGSGTSFTLTISGVEAEDLATYYCLQDYSWPLTFGQGTKVELK")
69
>>> observed_result("196C2 (antibody, V domains shown, Vkappa-shuffled clone of 170B2 (keeps the 170B2 VH-CH1); also called VK_196C2) VH: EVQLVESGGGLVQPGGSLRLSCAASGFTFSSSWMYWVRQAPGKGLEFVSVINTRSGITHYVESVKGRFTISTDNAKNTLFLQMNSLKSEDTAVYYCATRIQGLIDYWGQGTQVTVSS VL: DIQMTQSPSSLSASLGDRVTITCQASQSISSLLAWYQQKPGQAPKLLIYGASRLQTGVPSRFSGSGSGTSFTLTISGVEAEDLATYYCLQDYSWPLTFGQGTKVELK")
67

Proceed to the following item.
Quick note, IC50 pM (potency on human IL22R expressing cells) for 198G11 (antibody, V domains shown, Vkappa-shuffled clone of 170B2 (keeps the 170B2 VH-CH1); also called VK_198G11) VH: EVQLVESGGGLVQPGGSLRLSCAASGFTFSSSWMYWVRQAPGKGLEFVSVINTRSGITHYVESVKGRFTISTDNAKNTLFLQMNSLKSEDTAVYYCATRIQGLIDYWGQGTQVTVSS VL: DIVMTQSPSSLSASLGDRVTVTCQASQSIRSSLNWYQQKPGQAPKLLIYGASRLRIGVPSRFSGSASGTSFTLTISGVESEDLATYYCLQDYTWPLSFGSGTRLEIK landed at 132
